Recorded measurements of IC50, one per entry
- assayed.target: Mitogen-activated protein kinase 10 (Homo sapiens)
- Sequence (P53779 whole entry): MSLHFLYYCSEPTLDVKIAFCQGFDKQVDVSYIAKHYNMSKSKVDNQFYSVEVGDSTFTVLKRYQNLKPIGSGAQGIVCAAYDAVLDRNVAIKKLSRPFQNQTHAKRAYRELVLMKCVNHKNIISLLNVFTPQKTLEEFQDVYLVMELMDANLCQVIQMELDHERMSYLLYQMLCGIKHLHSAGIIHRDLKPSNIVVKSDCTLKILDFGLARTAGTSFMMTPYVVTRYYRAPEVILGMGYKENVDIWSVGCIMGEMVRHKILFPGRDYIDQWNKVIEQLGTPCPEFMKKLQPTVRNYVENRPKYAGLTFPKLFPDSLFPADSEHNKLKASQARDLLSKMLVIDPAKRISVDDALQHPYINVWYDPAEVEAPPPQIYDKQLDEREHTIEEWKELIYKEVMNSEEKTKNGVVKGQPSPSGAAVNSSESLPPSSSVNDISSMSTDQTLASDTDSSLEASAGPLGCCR
- assay.overview: Dose response biochemical screening assay for inhibitors of c-Jun N-Terminal Kinase 3 (JNK3). [Related pubchem assays: 746 ]

{"compound": "CN(c1ccc(C(=O)Nc2nccs2)cc1)S(=O)(=O)c1ccccc1", "IC50": "46.9 µM (not active)"}
{"compound": "O=C1NC2=C(C(=O)c3ccccc32)C(c2ccccc2)N1 (centres undefined)", "IC50": "38.3 µM (not active)"}
{"compound": "c1ccc2[nH]c3c4ccccc4nc-3nc2c1", "IC50": "13.9 µM (not active)"}
{"compound": "CS(=O)(=O)N1CCN(c2ccccc2NC(=O)CSc2ccc(Cl)cc2)CC1", "IC50": "90.5 µM (not active)"}

---

- assayed.target: DNA dC->dU-editing enzyme APOBEC-3A (Homo sapiens)
- Sequence (P31941 whole entry): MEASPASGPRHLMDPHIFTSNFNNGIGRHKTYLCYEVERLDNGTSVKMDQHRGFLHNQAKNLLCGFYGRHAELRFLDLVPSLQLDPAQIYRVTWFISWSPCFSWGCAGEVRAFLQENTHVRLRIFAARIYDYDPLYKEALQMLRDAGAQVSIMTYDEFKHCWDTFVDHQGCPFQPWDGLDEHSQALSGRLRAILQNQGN
- assay.overview: Dose Response confirmation of small molecule APOBEC3A DNA Deaminase Inhibitors via a fluorescence-based single-stranded DNA deaminase assay. [Related pubchem assays (depositor defined):AID493011, AID493024]
- Assay type: functional
The source made the active and inactive calls.

{"compound": "CC(Oc1ccc(F)cc1)C(=O)Nc1cc(S(=O)(=O)N2CCOCC2)ccc1N1CCN(C)CC1 (stereo not given)", "IC50": "4.91 µM (active)"}
{"compound": "CC(=O)c1c(COC(=O)c2cccnc2)nc2ccccc2[n+]1[O-]", "IC50": "1.48 µM (active)"}
{"compound": "C[n+]1cccc(/C=N/NC(=O)CC23CC4CC(CC(C4)C2)C3)c1", "IC50": "3.04 µM (active)"}
{"compound": "Fc1ccccc1Sc1ccccc1CNC1=NCCN1", "IC50": "1.35 µM (active)"}
{"compound": "CCn1c(SCC(=O)O)nc2sc3c(c2c1=O)CCC3", "IC50": "17.5 µM (active)"}

---

- assayed.target: Histone-lysine N-methyltransferase NSD2 (Homo sapiens)
- Sequence (O96028 whole entry): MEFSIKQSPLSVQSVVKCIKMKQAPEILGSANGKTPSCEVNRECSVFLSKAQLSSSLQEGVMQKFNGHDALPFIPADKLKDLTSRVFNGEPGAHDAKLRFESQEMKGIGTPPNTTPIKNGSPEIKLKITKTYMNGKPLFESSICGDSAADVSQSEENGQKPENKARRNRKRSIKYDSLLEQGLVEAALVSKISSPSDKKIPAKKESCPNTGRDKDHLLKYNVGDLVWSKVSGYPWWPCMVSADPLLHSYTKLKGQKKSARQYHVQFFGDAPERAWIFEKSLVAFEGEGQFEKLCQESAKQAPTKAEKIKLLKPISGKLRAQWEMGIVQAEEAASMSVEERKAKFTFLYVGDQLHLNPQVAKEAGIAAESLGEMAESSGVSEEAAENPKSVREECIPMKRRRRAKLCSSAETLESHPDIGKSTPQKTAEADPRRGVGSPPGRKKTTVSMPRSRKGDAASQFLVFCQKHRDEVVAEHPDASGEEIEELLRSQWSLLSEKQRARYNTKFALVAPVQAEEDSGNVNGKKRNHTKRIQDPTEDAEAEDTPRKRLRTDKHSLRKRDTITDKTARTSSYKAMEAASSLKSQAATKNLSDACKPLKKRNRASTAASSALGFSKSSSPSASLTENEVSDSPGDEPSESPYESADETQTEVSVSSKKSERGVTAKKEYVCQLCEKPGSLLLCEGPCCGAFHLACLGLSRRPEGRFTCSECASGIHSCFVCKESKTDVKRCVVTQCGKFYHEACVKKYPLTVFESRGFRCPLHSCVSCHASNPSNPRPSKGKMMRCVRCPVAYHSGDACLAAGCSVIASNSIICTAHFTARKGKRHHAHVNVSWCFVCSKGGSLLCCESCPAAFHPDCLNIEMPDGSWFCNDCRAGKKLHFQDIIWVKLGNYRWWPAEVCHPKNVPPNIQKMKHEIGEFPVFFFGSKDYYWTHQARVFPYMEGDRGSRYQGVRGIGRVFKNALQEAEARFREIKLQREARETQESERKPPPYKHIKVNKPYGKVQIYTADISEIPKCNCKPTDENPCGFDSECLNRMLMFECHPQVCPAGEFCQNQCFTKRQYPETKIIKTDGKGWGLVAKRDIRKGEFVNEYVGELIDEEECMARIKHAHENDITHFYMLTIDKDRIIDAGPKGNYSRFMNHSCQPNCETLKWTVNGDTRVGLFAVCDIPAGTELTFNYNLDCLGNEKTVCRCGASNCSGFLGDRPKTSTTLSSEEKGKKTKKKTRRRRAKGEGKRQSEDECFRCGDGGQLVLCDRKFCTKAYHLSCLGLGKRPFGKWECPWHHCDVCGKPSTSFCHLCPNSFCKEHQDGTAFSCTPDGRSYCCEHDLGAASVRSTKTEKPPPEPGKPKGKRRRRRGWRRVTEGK
- Format: biochemical
Activity calls are given as the source filed them.
Outcome codes: active, inactive

{"query.smiles": "C=CCc1cc(/C=C/c2nc(O)c([N+](=O)[O-])c(O)n2)cc(OC)c1O", "class": "inactive"}
{"query.smiles": "C=CCNC1=C(Cl)C(=O)c2ccccc2C1=O", "class": "active"}
{"query.smiles": "O=[N+]([O-])c1ccccc1Nc1ccc(O)cc1", "class": "inactive"}
{"query.smiles": "CN(C)c1cccc2c(S(=O)(=O)Nc3ccccn3)cccc12", "class": "active"}
{"query.smiles": "CS(=O)(=O)c1ccc2c(c1)SC1=NC(=O)/C(=C/c3ccc(O)c(O)c3)C(=N)N12", "class": "active"}
{"query.smiles": "CCOC(=O)C(C(=O)OCC)c1cc(Br)c2noc3c2c1C(=O)c1ccccc1-3", "class": "inactive"}
{"query.smiles": "CCN(CC)CCNC(=O)c1c(C)[nH]c(/C=C2\\C(=O)Nc3ccc(F)cc32)c1C", "class": "inactive"}
{"query.smiles": "CCN(CC)CCCNc1[nH]c2ccccc2c2nc3ccc(OC)cc3c1-2", "class": "inactive"}
{"query.smiles": "CCN(CC)CCNc1ncnc2c1sc1nc(N3CCCC3)c3c(c12)CC(C)(C)OC3", "class": "active"}

---

- Test system: H4
- assay.overview: Luminescence Cell-Based Dose Response HTS to Identify Activators of 5'UTR Stem-Loop Driven Prion Protein mRNA Translation in H4 Neuroglioblastoma Cells. [Related pubchem assays: 1829 (Project Summary), 1814 (Primary HTS)]
- Type: functional
- condition.description: Homo sapiens
Calls of active or inactive are those of the source.

{"molecule": "CC1CCC(NC(=O)Cn2ncc3ccccc32)CC1 (stereo not given)", "EC50": "> 120 µM (not active)"}
{"molecule": "c1ccc(CSCc2cn3ccsc3n2)cc1", "EC50": "7.85 µM (active)"}
{"molecule": "Cc1ccc(N2C(=O)c3[nH]nc(C)c3C2c2ccco2)cc1 (stereo not given)", "EC50": "17.9 µM (inconclusive)"}
{"molecule": "O=C(CSc1ccc(-c2ccccc2)nn1)Nc1ccc2c(c1)OCCO2", "EC50": "> 120 µM (not active)"}
{"molecule": "Cc1c(Br)c(C(=O)N2CCc3ccccc32)nn1C", "EC50": "99.2 µM (active)"}
